Ref: BigSolDB 2.1

details: in ethanol, 283.15 K

>  <Structure>
CC(C)(Oc1ccc(CCNC(=O)c2ccc(Cl)cc2)cc1)C(=O)O

>  <solubility (mole fraction)>
0.00223

$$$$

* * *

conditions: in isopropanol, 298.15 K

>  <Structure>
CC(C)(Oc1ccc(CCNC(=O)c2ccc(Cl)cc2)cc1)C(=O)O

>  <solubility (mole fraction)>
0.00307

$$$$

* * *

conditions: in ethanol, 303.15 K
Endpoint name: solubility (mole fraction)

>  <Structure>
CC(C)(Oc1ccc(CCNC(=O)c2ccc(Cl)cc2)cc1)C(=O)O

>  <Numeric result>
0.00482

$$$$

* * *

conditions: in water, 308.15 K

>  <Structure>
CC(C)(Oc1ccc(CCNC(=O)c2ccc(Cl)cc2)cc1)C(=O)O

>  <solubility (mole fraction)>
4.13e-06

$$$$
